- System: Enterobacter cloacae
- assayInfo: Antimicrobial activity against carbapenemase-producing Enterobacter cloacae […] assessed as inhibition of bacterial growth incubated for 18 hrs by CLSI based serial broth dilution method
- Type: functional
Where a SMILES comes first, the peptide text is derived from it. [ ]: non-standard residue; d: D form. The star is where a group is joined. d(aIle) = CC[C@H](C)[C@@H](N)C(=O)O; dOrn = NCCC[C@@H](N)C(=O)O; Octanoyl = CCCCCCCC(=O)*; Orn = NCCC[C@H](N)C(=O)O
reportedMetric: MIC (µg/mL)
Numbers only, in µg/mL.

Request: Provide only the value of recorded MIC for CCCCCCCC(=O)N[C@@H](C(=O)N[C@H](CCCN)C(=O)NCC(=O)N[C@H](CO)C(=O)N[C@H](Cc1c[nH]c2ccccc12)C(=O)N[C@@H](CO)C(=O)N[C@@H](CCCN)C(=O)N[C@H](CCCN)C(=O)N[C@@H](Cc1ccccc1)C(=O)N[C@@H](CCC(=O)O)C(=O)N[C@H](C(=O)N[C@@H](C(=O)N[C@@H](C)C(=O)O)[C@@H](C)CC)C(C)C)C(C)C (Octanoyl-[dV][dOrn]G[dS][dW]S[Orn][dOrn]FEV[d(aIle)]A-OH)
Result: 6.25

====

I'd be grateful if you could share measured MIC for these entries.
- System: Klebsiella pneumoniae
- assayInfo: Antimicrobial activity against carbapenemase-producing Klebsiella pneumoniae IMP 485 assessed as inhibition of bacterial growth incubated for 18 hrs by CLSI based serial broth dilution method
- Format: functional
- conditionDetails: IMP 485, 18 h
Where a SMILES comes first, the peptide text is derived from it. [ ]: non-standard residue; d: D form. The star is where a group is joined. d(aIle) = CC[C@H](C)[C@@H](N)C(=O)O; dOrn = NCCC[C@@H](N)C(=O)O; dDab = NCC[C@@H](N)C(=O)O; Octanoyl = CCCCCCCC(=O)*; Orn = NCCC[C@H](N)C(=O)O
One number for each entry, in µg/mL.

CCCCCCCC(=O)N[C@@H](C(=O)N[C@H](CCCCN)C(=O)NCC(=O)N[C@H](CO)C(=O)N[C@H](Cc1c[nH]c2ccccc12)C(=O)N[C@@H](CO)C(=O)N[C@@H](CCCCN)C(=O)N[C@H](CCN)C(=O)N[C@@H](Cc1ccccc1)C(=O)N[C@@H](CCC(=O)O)C(=O)N[C@H](C(=O)N[C@@H](C(=O)N[C@@H](C)C(=O)O)[C@@H](C)CC)C(C)C)C(C)C (Octanoyl-[dV][dK]G[dS][dW]SK[dDab]FEV[d(aIle)]A-OH) : 25
CCCCCCCC(=O)N[C@@H](C(=O)N[C@H](CCCN)C(=O)NCC(=O)N[C@H](CO)C(=O)N[C@H](Cc1c[nH]c2ccccc12)C(=O)N[C@@H](CO)C(=O)N[C@@H](CCCN)C(=O)N[C@H](CCCN)C(=O)N[C@@H](Cc1ccccc1)C(=O)N[C@@H](CCC(=O)O)C(=O)N[C@H](C(=O)N[C@@H](C(=O)N[C@@H](C)C(=O)O)C(C)C)C(C)C)C(C)C (Octanoyl-[dV][dOrn]G[dS][dW]S[Orn][dOrn]FEV[dV]A-OH) : 12.5

List reported MIC for each of these molecules:
1. CCCCCCCC(=O)N[C@@H](C(=O)N[C@H](CCN)C(=O)NCC(=O)N[C@H](CO)C(=O)N[C@H](Cc1c[nH]c2ccccc12)C(=O)N[C@@H](CO)C(=O)N[C@@H](CCN)C(=O)N[C@H](CCN)C(=O)N[C@@H](Cc1ccccc1)C(=O)N[C@@H](CCC(=O)O)C(=O)N[C@H](C(=O)N[C@@H](C(=O)N[C@@H](C)C(=O)O)[C@@H](C)CC)C(C)C)C(C)C
2. CCCCCCCC(=O)N[C@@H](C(=O)N[C@H](CCCN)C(=O)NCC(=O)N[C@H](CO)C(=O)N[C@H](Cc1c[nH]c2ccccc12)C(=O)N[C@@H](CO)C(=O)N[C@@H](CCCN)C(=O)N[C@H](CCCN)C(=O)N[C@@H](Cc1ccccc1)C(=O)N[C@@H](CCC(=O)O)C(=O)N[C@H](C(=O)N[C@@H](C(=O)N[C@@H](C)C(=O)O)[C@@H](C)CC)C(C)C)C(C)C (Octanoyl-[dV][dOrn]G[dS][dW]S[Orn][dOrn]FEV[d(aIle)]A-OH)

Result:
6.25
25

Cited source: ChEMBL document CHEMBL4368898
